Measured values drawn from patent US20210246166A1 for this set.

# Tested System: T1, Recombinant human MASP1 enzyme (fragment corresponding to amino acids 297-699, C-terminal His Tag) (human, UniProt P48740 297-699)
# T1 sequence: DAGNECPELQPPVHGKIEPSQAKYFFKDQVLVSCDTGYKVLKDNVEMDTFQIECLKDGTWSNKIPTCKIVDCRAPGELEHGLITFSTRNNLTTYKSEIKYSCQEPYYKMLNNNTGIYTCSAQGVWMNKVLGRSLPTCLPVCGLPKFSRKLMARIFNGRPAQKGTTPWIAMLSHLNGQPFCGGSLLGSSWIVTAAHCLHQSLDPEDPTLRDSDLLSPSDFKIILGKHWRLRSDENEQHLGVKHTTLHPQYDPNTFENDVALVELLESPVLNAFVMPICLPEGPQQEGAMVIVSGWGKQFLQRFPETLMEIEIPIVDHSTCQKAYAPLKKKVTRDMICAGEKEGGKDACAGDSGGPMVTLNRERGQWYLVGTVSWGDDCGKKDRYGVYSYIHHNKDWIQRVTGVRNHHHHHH
# Test Name: cell-based or functional assay
Numbered stars: 1 amine (or outer) side, 2 acyl side, 3 side chain; on linkers, the order of the positions; unused ones are H or OH. Bridge positions count the residues as written; N and C are the ends. Square brackets hold non-standard residues; d marks the D form. Ends that are not written are not given here. X13 = (2S)‑2‑amino‑3‑(1-methylcyclopropyl)propanoic acid, CC1(C[C@H](N[*:1])C(=O)[*:2])CC1; Phe(2,5-diF) = O=C([C@H](Cc1cc(F)ccc1F)N[*:1])[*:2]; Pro(cis-4-CF3) = O=C(O)[C@@H]1C[C@H](C(F)(F)F)CN1; Oic = O=C(O)[C@@H]1C[C@@H]2CCCC[C@@H]2N1; tBuAla = CC(C)(C)C[C@H](N)C(=O)O; Aad = N[C@@H](CCCC(=O)O)C(=O)O; Pen = CC(C)(S)[C@H](N)C(=O)O; Sar = CNCC(=O)O
Assay Endpoint: human MASP1 IC50 (nM)
Give the number; nM is assumed, so skip it.

• [Sar]ICSRSLP[Oic]I[Pen]IP[Aad]-OH (disulfide 3-11; N-terminus assumed; SMILES CC[C@H](C)[C@H](NC(=O)CNC)C(=O)N[C@H]1CSSC(C)(C)[C@@H](C(=O)N[C@H](C(=O)N2CCC[C@H]2C(=O)N[C@@H](CCCC(=O)O)C(=O)O)[C@@H](C)CC)NC(=O)[C@H]([C@@H](C)CC)NC(=O)[C@@H]2C[C@@H]3CCCC[C@@H]3N2C(=O)[C@@H]2CCCN2C(=O)[C@H](CC(C)C)NC(=O)[C@H](CO)NC(=O)[C@H](CCCNC(=N)N)NC(=O)[C@H](CO)NC1=O) [((N-Me)G)-IC+SRSLP-(Oic)-I-(Pen)+IP-(AAD)-OH] = 7
• [Sar]ICSRS[Phe(2,5-diF)]PPI[Pen]IPD[dD]-OH (disulfide 3-11; N-terminus assumed; SMILES CC[C@H](C)[C@H](NC(=O)CNC)C(=O)N[C@H]1CSSC(C)(C)[C@@H](C(=O)N[C@H](C(=O)N2CCC[C@H]2C(=O)N[C@@H](CC(=O)O)C(=O)N[C@H](CC(=O)O)C(=O)O)[C@@H](C)CC)NC(=O)[C@H]([C@@H](C)CC)NC(=O)[C@@H]2CCCN2C(=O)[C@@H]2CCCN2C(=O)[C@H](Cc2cc(F)ccc2F)NC(=O)[C@H](CO)NC(=O)[C@H](CCCNC(=N)N)NC(=O)[C@H](CO)NC1=O) [((N-Me)G)-IC+SRS-((2,5-Difluoro)F)-PPI-(Pen)+IPDd-OH] = 17

Fill in the blank: the reported human MASP1 IC50 of AICSRS[tBuAla]P[Pro(cis-4-CF3)]I[Pen]IPD-OH (disulfide 3-11; N-terminus assumed; SMILES CC[C@H](C)[C@H](NC(=O)[C@H](C)N)C(=O)N[C@H]1CSSC(C)(C)[C@@H](C(=O)N[C@H](C(=O)N2CCC[C@H]2C(=O)N[C@@H](CC(=O)O)C(=O)O)[C@@H](C)CC)NC(=O)[C@H]([C@@H](C)CC)NC(=O)[C@@H]2C[C@H](C(F)(F)F)CN2C(=O)[C@@H]2CCCN2C(=O)[C@H](CC(C)(C)C)NC(=O)[C@H](CO)NC(=O)[C@H](CCCNC(=N)N)NC(=O)[C@H](CO)NC1=O) [AIC+SRS-((tBu)A)-P-((4-CF3)P)-I-(Pen)+IPD-OH] is ____.
3.1

// lookup human MASP1 IC50 for [Sar]ICSRS[X13]P[Oic]I[Pen]IPD-OH (disulfide 3-11; N-terminus assumed; SMILES CC[C@H](C)[C@H](NC(=O)CNC)C(=O)N[C@H]1CSSC(C)(C)[C@@H](C(=O)N[C@H](C(=O)N2CCC[C@H]2C(=O)N[C@@H](CC(=O)O)C(=O)O)[C@@H](C)CC)NC(=O)[C@H]([C@@H](C)CC)NC(=O)[C@@H]2C[C@@H]3CCCC[C@@H]3N2C(=O)[C@@H]2CCCN2C(=O)[C@H](CC2(C)CC2)NC(=O)[C@H](CO)NC(=O)[C@H](CCCNC(=N)N)NC(=O)[C@H](CO)NC1=O) [((N-Me)G)-IC+SRS-((2S)-2-amino-3-(1-methylcyclopropyl)propanoic acid)-P-(Oic)-I-(Pen)+IPD-OH]
20
